Species on record: Rattus norvegicus
Assay: Activity to induce the elevation of HDL(High Density Lipoproteins)-Cholesterol of male Wistar rats
Assay type: functional
Parameters: concentration or dose not given beside the values
Lab note: anything with HDL-cholesterol change relative to control (%) below 30% is marked Condition met; values at 30% or higher are marked Condition not met.

Use the examples below as a reference point.
In: Find out if reported HDL-cholesterol change relative to control (%) for COP(=O)(OC)C(O)(c1ccc(C)cc1)P(=O)(OC)OC is less than 30%
Out: Condition met

In: Find out if reported HDL-cholesterol change relative to control (%) for COP(=O)(OC)C(O)(c1ccc(F)cc1)P(=O)(OC)OC is less than 30%
Out: Condition met

In: Find out if reported HDL-cholesterol change relative to control (%) for COP(=O)(OC)OC(C1CCCCC1)P(=O)(OC)OC (configuration not stated) is less than 30%
Out: Condition met

In: Find out if reported HDL-cholesterol change relative to control (%) for COP(=O)(OC)C(O)(c1ccc2ccccc2c1)P(=O)(OC)OC is less than 30%
Out: Condition not met

In: Find out if reported HDL-cholesterol change relative to control (%) for COP(=O)(OC)OC(c1ccc2ccccc2c1)P(=O)(OC)OC (configuration not stated) is less than 30%
Out: Condition not met

Further cases:
In: Find out if reported HDL-cholesterol change relative to control (%) for COP(=O)(OC)OC(c1ccc(C(F)(F)F)cc1)P(=O)(OC)OC (configuration not stated) is less than 30%
Out: Condition met

In: Find out if reported HDL-cholesterol change relative to control (%) for O=P(O)(O)C(CCCOc1ccccc1)P(=O)(O)O is less than 30%
Out: Condition met

In: Find out if reported HDL-cholesterol change relative to control (%) for COP(=O)(OC)C(O)(c1ccc(Cl)cc1)P(=O)(OC)OC is less than 30%
Out: Condition not met

In: Find out if reported HDL-cholesterol change relative to control (%) for COP(=O)(OC)C(O)(C(C)(C)C)P(=O)(OC)OC is less than 30%
Out: Condition met

In: Find out if reported HDL-cholesterol change relative to control (%) for COP(=O)(OC)OC(C(C)(C)c1ccccc1)P(=O)(OC)OC (configuration not stated) is less than 30%
Out: Condition not met

In: Find out if reported HDL-cholesterol change relative to control (%) for CCOP(=O)(OCC)C(CCc1ccccc1)P(=O)(OCC)OCC is less than 30%
Out: Condition not met

In: Find out if reported HDL-cholesterol change relative to control (%) for COP(=O)(OC)C(O)(c1ccc(-c2ccccc2)cc1)P(=O)(OC)OC is less than 30%
Out: Condition not met

In: Find out if reported HDL-cholesterol change relative to control (%) for COP(=O)(OC)C(CCCOc1ccccc1)P(=O)(OC)OC is less than 30%
Out: Condition met

In: Find out if reported HDL-cholesterol change relative to control (%) for COP(=O)(OC)OC(c1ccc(Cl)cc1)P(=O)(OC)OC (configuration not stated) [MIFOBATE] is less than 30%
Out: Condition not met

In: Find out if reported HDL-cholesterol change relative to control (%) for COP(=O)(OC)C(Cc1ccc(Cl)cc1)P(=O)(OC)OC is less than 30%
Out: Condition not met

In: Find out if reported HDL-cholesterol change relative to control (%) for COP(=O)(OC)OC(c1ccccc1)P(=O)(OC)OC (configuration not stated) is less than 30%
Out: Condition met

In: Find out if reported HDL-cholesterol change relative to control (%) for COP(=O)(OC)OC(c1cccc(Cl)c1)P(=O)(OC)OC (configuration not stated) is less than 30%
Out: Condition not met

In: Find out if reported HDL-cholesterol change relative to control (%) for COP(=O)(OC)C(CCCc1ccccc1)P(=O)(OC)OC is less than 30%
Out: Condition not met

In: Find out if reported HDL-cholesterol change relative to control (%) for COP(=O)(OC)OC(c1cccc(Br)c1)P(=O)(OC)OC (configuration not stated) is less than 30%
Out: Condition met
